conditions: in dichloromethane, 313.15 K
metric: solubility (mole fraction)
Give only the figure.

Item under review: CN1COCNC1=N[N+](=O)[O-] . Reported solubility (mole fraction)?
0.0234

---

details: in DMF, 308.15 K
metric: solubility (mole fraction)

Item under review: CN1COCNC1=N[N+](=O)[O-] . Reported solubility (mole fraction)?
0.138

---

conditions: in n-butanol, 318.15 K
metric: solubility (mole fraction)

Item under review: CN1COCNC1=N[N+](=O)[O-] . Reported solubility (mole fraction)?
0.00321

---

conditions: in DMF, 293.15 K
metric: solubility (mole fraction)
Give only the figure.

Item under review: CN1COCNC1=N[N+](=O)[O-] . Reported solubility (mole fraction)?
0.0947

---

conditions: in DMF, 318.15 K
metric: solubility (mole fraction)
Give only the figure.

Item under review: CN1COCNC1=N[N+](=O)[O-] . Reported solubility (mole fraction)?
0.165

---

conditions: in ethyl acetate, 293.15 K
metric: solubility (mole fraction)

Item under review: CN1COCNC1=N[N+](=O)[O-] . Reported solubility (mole fraction)?
0.00579

---

conditions: in n-propanol, 308.15 K
metric: solubility (mole fraction)
Give only the figure.

Item under review: CN1COCNC1=N[N+](=O)[O-] . Reported solubility (mole fraction)?
0.00217

---

conditions: in isopropanol, 318.15 K
metric: solubility (mole fraction)
Give only the figure.

Item under review: CN1COCNC1=N[N+](=O)[O-] . Reported solubility (mole fraction)?
0.00285

---

conditions: in ethyl acetate, 323.15 K
metric: solubility (mole fraction)

Item under review: CN1COCNC1=N[N+](=O)[O-] . Reported solubility (mole fraction)?
0.0106

---

settings: in ethanol, 323.15 K
metric: solubility (mole fraction)

Item under review: CN1COCNC1=N[N+](=O)[O-] . Reported solubility (mole fraction)?
0.00507

---

conditions: in DMF, 323.15 K
metric: solubility (mole fraction)

Item under review: CN1COCNC1=N[N+](=O)[O-] . Reported solubility (mole fraction)?
0.166

---

settings: in n-butanol, 303.15 K
metric: solubility (mole fraction)
Give only the figure.

Item under review: CN1COCNC1=N[N+](=O)[O-] . Reported solubility (mole fraction)?
0.00234

---

settings: in ethanol, 298.15 K
metric: solubility (mole fraction)

Item under review: CN1COCNC1=N[N+](=O)[O-] . Reported solubility (mole fraction)?
0.00212

---

details: in methyl acetate, 303.15 K
metric: solubility (mole fraction)
Give only the figure.

Item under review: CN1COCNC1=N[N+](=O)[O-] . Reported solubility (mole fraction)?
0.00936

---

conditions: in isopropanol, 313.15 K
metric: solubility (mole fraction)
Give only the figure.

Item under review: CN1COCNC1=N[N+](=O)[O-] . Reported solubility (mole fraction)?
0.00242

---

conditions: in DMSO, 298.15 K
metric: solubility (mole fraction)

Item under review: CN1COCNC1=N[N+](=O)[O-] . Reported solubility (mole fraction)?
0.0978

---

details: in ethanol, 293.15 K
metric: solubility (mole fraction)
Give only the figure.

Item under review: CN1COCNC1=N[N+](=O)[O-] . Reported solubility (mole fraction)?
0.00163

---

details: in methanol, 308.15 K
metric: solubility (mole fraction)
Give only the figure.

Item under review: CN1COCNC1=N[N+](=O)[O-] . Reported solubility (mole fraction)?
0.00532
